For each entry below, report its TGI value.
Tested on: SNB-19 CNS
Test: NCI tumour cell line growth inhibition, 48 h

Request: Specify the recorded TGI for COc1ccc(C2N3CCCCC3[C@@H]3c4[nH]c5ccccc5c4CCN23)c(OC)c1 (stereo partly specified) , system: SNB-19 CNS.
Response: > 100 µM

Request: Recall the reported TGI of NC1=NCC(c2ccccn2)C1c1ccc(F)cc1 (stereo unspecified) when tested on SNB-19 CNS.
Response: > 100 µM

Request: Enter recorded TGI with SNB-19 CNS for COc1ccc(C2CC(c3cccc(OC)c3)=NN2C(=O)c2cc(OC)c(OC)c(OC)c2)cc1 (stereo unspecified) here.
Response: > 100 µM

Request: // output TGI; input Cc1cc(S(=O)(=O)Nc2nc3ccccc3[nH]2)c(SCc2ccccc2)cc1Cl ; system SNB-19 CNS
Response: > 100 µM

Request: Give TGI only, for COc1ccc(Nc2ncc(-c3ccccc3)o2)cc1OC , using SNB-19 CNS data.
Response: > 25 µM

Request: State TGI (SNB-19 CNS) of N/N=C(/CC(O)(C(F)(F)F)C(F)(F)F)c1ccccc1 .
Response: > 10 µM
